B1: Azoarcus group I ribozyme (parent)
chain: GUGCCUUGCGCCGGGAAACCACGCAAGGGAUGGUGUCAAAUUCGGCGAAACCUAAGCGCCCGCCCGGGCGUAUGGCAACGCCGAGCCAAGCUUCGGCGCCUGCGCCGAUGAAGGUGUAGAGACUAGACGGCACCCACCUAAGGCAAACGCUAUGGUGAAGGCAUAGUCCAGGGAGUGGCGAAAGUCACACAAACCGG

Variants of: B1
Assay: reverse-splicing fitness (ratio to wild type); higher = more active; in vitro selection; Mg2+ level not given

mutation.string | reverse-splicing fitness
C82U A111U A120G A145G C150G C169G U176C | 0.0107
C82A A111G A120U C169U U176C | 0.00427
C82G A120U U176C | 0.113
A111G A145C C150U C169U U176G | 0.0062
C82U A111C A145U C150G C169A U176C | 0.0103
C82G A111G A120U A145C C169U | 0.00478
C82G A111G A120G A145U C169G U176C | 0.0187
C82G A111U A120G A145U C150U C169A U176G | 0.00501
A111C A120U A145U C150A U176A | 0.0343
A111C A120G C150U C169G U176G | 0.00581
C82A A111U A120C A145C C150G U176G | 0.0032
